# System: AGS gastric cancer cell line (KRAS G12D mutation)
# testName: Proliferation inhibition measured by CTG (CellTiter Glo), AGS
# Format: cell-based
# experimentalConditions: Table 3; CTG, 120 hours incubation; class symbol; read-out: IC50 (AGS)
experimentalEndpoint: IC50

compoundStructureString: Cc1cccc(N)c1C(=O)Oc1cc(N2CCc3c(nc(OC[C@@H]4CCCN4C)nc3N3Cc4c(F)ncn4C[C@H]3C)C2)c2c(Cl)cccc2c1
tgt: AGS gastric cancer cell line (KRAS G12D mutation)
IC50: ≤ 100 nM
//
compoundStructureString: C[C@@H]1Cn2cnc(F)c2CN1c1nc(OC[C@@H]2CCCN2C)nc2c1CCN(c1cc(OC(=O)C(C)(C)C)cc3cccc(Cl)c13)C2
tgt: AGS gastric cancer cell line (KRAS G12D mutation)
IC50: ≤ 100 nM
//
compoundStructureString: C[C@@H]1Cn2cncc2CN1c1nc(OC[C@@H]2CCCN2C)nc2c1CCN(c1cccc3cccnc13)C2
tgt: AGS gastric cancer cell line (KRAS G12D mutation)
IC50: ≤ 100 nM
//
compoundStructureString: C[C@@H]1Cn2cnc(F)c2CN1c1nc(OC[C@@H]2CCCN2C)nc2cc(-c3cccc4cccc(Cl)c34)ccc12
tgt: AGS gastric cancer cell line (KRAS G12D mutation)
IC50: ≤ 100 nM
//
compoundStructureString: C[C@@H]1Cn2cnc(F)c2CN1c1nc(OC[C@@H]2CCCN2C)nc2c1CCN(c1cc(O)c(Cl)c3cccc(Cl)c13)C2
tgt: AGS gastric cancer cell line (KRAS G12D mutation)
IC50: ≤ 100 nM
//
compoundStructureString: C[C@@H]1Cn2cnc(F)c2CN1c1nc(OC[C@@H]2CCCN2C)nc2c1CCN(c1cc(O)cc3cccc(Cl)c13)C2
tgt: AGS gastric cancer cell line (KRAS G12D mutation)
IC50: ≤ 100 nM
//
compoundStructureString: C[C@@H]1Cn2cncc2CN1c1nc(OC[C@@H]2CCCCN2C)nc2c1CCN(c1cccc3cccc(Cl)c13)C2
tgt: AGS gastric cancer cell line (KRAS G12D mutation)
IC50: ≤ 100 nM
//
compoundStructureString: C[C@@H]1Cn2cncc2CN1c1nc(OC[C@@H]2CCCN2C)nc2c1CCN(c1cc(OC(=O)N(C)C)cc3cccc(Cl)c13)C2
tgt: AGS gastric cancer cell line (KRAS G12D mutation)
IC50: ≤ 100 nM

Working through the 3 compounds below one at a time, give IC50 for each.
1. C[C@@H]1Cn2cnc(F)c2CN1c1nc(OC[C@@H]2CCCN2C)nc2c1CO[C@H](c1cccc3cccc(Cl)c13)C2
2. CCc1ccc(NC(=O)Oc2cc(N3CCc4c(nc(OC[C@@H]5CCCN5C)nc4N4Cc5c(F)ncn5C[C@H]4C)C3)c3c(Cl)cccc3c2)cc1
3. C[C@@H]1Cn2cncc2CN1c1nc(OC2CN(C)C2)nc2c1CCN(c1cccc3cccc(Cl)c13)C2

1: 100 to 1000 nM; 2: ≤ 100 nM; 3: 100 to 1000 nM

====

# Tested on: Hs 578T breast cancer cell line (HRAS G12D mutation)
# testName: Proliferation inhibition measured by CTG (CellTiter Glo), Hs 578T
# Format: cell-based
# experimentalConditions: Homo sapiens, Table 1, number in parentheses, unit not given in Table 1 (legend and Table 2 use μM)
# Excerpt: NCI-H358 is a human non-small cell lung cancer cell line with KRAS G12C mutation; PANC-1 and AsPC-1 are pancreatic cancer cell lines with KRAS G12D mutation; AGS is a gastric cancer cell line with KRAS G12D mutation; A427 is a lung cancer cell line with KRAS G12D mutation; THP-1 is a leukemia cell line with NRAS G12D mutation; Hs 578T is a breast cancer cell line with HRAS G12D mutation; SW480 is a colon cancer cell lines with KRAS G12V mutation; A375 is a wild type malignant melanoma cell line. […]
experimentalEndpoint: IC50 (µM)
Answers are plain numbers, in µM.

Tell me its IC50 given CN1CCC[C@H]1COc1nc2c(c(N3CCn4cncc4C3)n1)CCN(c1cccc3cccc(Cl)c13)C2 as the entry.
0.237

====

Can you tell me pIC50 for the items I'm about to list?
# Tested on: AGS gastric cancer cell line (KRAS G12D mutation)
# testName: Proliferation inhibition measured by CTG (CellTiter Glo), AGS
# Assay type: cell-based
# experimentalConditions: Table 3; CTG, 120 hours incubation; class symbol; read-out: IC50 (AGS)
# From the text: NCI-H358 is a human non-small cell lung cancer cell line with KRAS G12C mutation; PANC-1 and AsPC-1 are pancreatic cancer cell lines with KRAS G12D mutation; AGS is a gastric cancer cell line with KRAS G12D mutation; A427 is a lung cancer cell line with KRAS G12D mutation; THP-1 is a leukemia cell line with NRAS G12D mutation; Hs 578T is a breast cancer cell line with HRAS G12D mutation; SW480 is a colon cancer cell lines with KRAS G12V mutation; A375 is a wild type malignant melanoma cell line. […]
pIC50: −log10 of the molar value.

Working through the 4 compounds below one at a time, give pIC50 for each.
1. CC(=O)Nc1cc(N2CCc3c(nc(OC[C@@H]4CCCN4C)nc3N3Cc4c(F)ncn4C[C@H]3C)C2)c2c(Cl)cccc2c1
2. CN1CCC[C@H]1COc1nc2c(c(N3CCn4cnc(C(N)=O)c4C3)n1)CCN(c1cccc3cccc(Cl)c13)C2
3. COc1cc(N2CCc3c(nc(OC[C@@H]4CCCN4C)nc3N3Cc4cncn4C[C@H]3C)C2)c2c(Cl)cccc2c1
4. C[C@@H]1Cn2cncc2CN1c1nc(O[C@@H]2CCCN(C)C2)nc2c1CCN(c1cccc3cccc(Cl)c13)C2

1. 5.00 to 6.00
2. 6.00 to 7.00
3. 6.00 to 7.00
4. 6.00 to 7.00

====

# Test system: AGS gastric cancer cell line (KRAS G12D mutation)
# testName: Proliferation inhibition measured by CTG (CellTiter Glo), AGS
# Assay type: cell-based
# experimentalConditions: Table 3; CTG, 120 hours incubation; class symbol; read-out: IC50 (AGS)
# Description: NCI-H358 is a human non-small cell lung cancer cell line with KRAS G12C mutation; PANC-1 and AsPC-1 are pancreatic cancer cell lines with KRAS G12D mutation; AGS is a gastric cancer cell line with KRAS G12D mutation; A427 is a lung cancer cell line with KRAS G12D mutation; THP-1 is a leukemia cell line with NRAS G12D mutation; Hs 578T is a breast cancer cell line with HRAS G12D mutation; SW480 is a colon cancer cell lines with KRAS G12V mutation; A375 is a wild type malignant melanoma cell line. […]
Can you tell me IC50 for the items I'm about to list?

The cases that follow already have their IC50 on record.
compoundStructureString: CN1CCC[C@H]1COc1nc2c(c(N3CCn4c(cnc4-c4ccccc4)C3)n1)CCN(c1cccc3cccc(Cl)c13)C2
tgt: AGS gastric cancer cell line (KRAS G12D mutation)
IC50: 1000 to 10000 nM
--
compoundStructureString: C[C@@H]1Cn2cncc2CN1c1nc(OC[C@@H]2CCCN2C)nc2c1CCN(c1cc(OC(=O)C(C)(C)C)cc3cccc(Cl)c13)C2
tgt: AGS gastric cancer cell line (KRAS G12D mutation)
IC50: ≤ 100 nM
--
compoundStructureString: CNC(=O)Oc1cc(N2CCc3c(nc(OC[C@@H]4CCCN4C)nc3N3Cc4c(F)ncn4C[C@H]3C)C2)c2c(Cl)cccc2c1
tgt: AGS gastric cancer cell line (KRAS G12D mutation)
IC50: ≤ 100 nM
--
compoundStructureString: CC(C)[C@@H](N)C(=O)Oc1cc(N2CCc3c(nc(OC[C@@H]4CCCN4C)nc3N3Cc4c(F)ncn4C[C@H]3C)C2)c2c(Cl)cccc2c1
tgt: AGS gastric cancer cell line (KRAS G12D mutation)
IC50: ≤ 100 nM
--
compoundStructureString: C[C@@H]1Cn2cnc(F)c2CN1c1nc(OC[C@@H]2CCCCN2C)nc2c1CCN(c1cccc3cccc(Cl)c13)C2
tgt: AGS gastric cancer cell line (KRAS G12D mutation)
IC50: ≤ 100 nM
--
compoundStructureString: C[C@@H]1Cn2cncc2CN1c1nc(O[C@@H]2CCN(C)C2)nc2c1CCN(c1cccc3cccc(Cl)c13)C2
tgt: AGS gastric cancer cell line (KRAS G12D mutation)
IC50: ≤ 100 nM
--
compoundStructureString: CN1CCC[C@H]1COc1nc2c(c(N3CCn4c(cnc4Br)C3)n1)CCN(c1cccc3cccc(Cl)c13)C2
tgt: AGS gastric cancer cell line (KRAS G12D mutation)
IC50: 100 to 1000 nM
--
compoundStructureString: C[C@@H]1Cn2cnc(F)c2CN1c1nc(OC[C@@H]2CCCN2C)nc2cc(-c3cc(OC(=O)C(C)(C)C)cc4cccc(Cl)c34)ccc12
tgt: AGS gastric cancer cell line (KRAS G12D mutation)
IC50: ≤ 100 nM

Working through the 5 molecules below one at a time, give IC50 for each.
1. C[C@@H]1Cn2cnc(F)c2CN1c1nc(OC[C@@H]2CCCN2C)nc2c1CCN(c1cc(OC(=O)N(C)C)cc3cccc(Cl)c13)C2
2. C[C@@H]1Cn2cnc(F)c2CN1c1nc(OC[C@@H]2CCCCN2C)nc2c1CCN(c1cc(F)cc3cccc(Cl)c13)C2
3. C[C@@H]1Cn2cncc2CN1c1nc(O[C@H]2CCN(C)C2)nc2c1CCN(c1cccc3cccc(Cl)c13)C2
4. CN1CCC[C@H]1COc1nc2c(c(N3CCn4c(cnc4C4CC4)C3)n1)CCN(c1cccc3cccc(Cl)c13)C2
5. C[C@@H]1Cn2cnc(F)c2CN1c1nc(OC[C@@H]2CCCN2C)nc2cc(-c3cc(O)cc4cccc(Cl)c34)ccc12

1. ≤ 100 nM
2. ≤ 100 nM
3. 100 to 1000 nM
4. 1000 to 10000 nM
5. ≤ 100 nM

Recorded values, source patent US20230391785A1.
